target: cloned human κ-opioid receptor (Homo sapiens); construct: expressed in transfected cells; assay: Inhibition of U69,593-stimulated [35S]GTPγS binding; format: biochemical; conditions: antagonism of U69,593-stimulated [35S]GTPγS binding, cloned human κ receptor; read-out: κ, U69,593 Ke
One threshold, 1 nM, splits the recorded Kb values: lower ones are 1 (yes), equal or higher ones are 0 (no).

For this compound, is Kb lower than 1 nM? Cc1ccc(O)c(Oc2ccc(C(=O)N[C@H](CN3CCN(c4cccc(O)c4)[C@@H](C)C3)C(C)C)cc2Cl)c1.Cl.Cl [Compound 19p, Dihydrochloride] 0 (no)

For this compound, is Kb lower than 1 nM? CC(C)[C@@H](CN1CCN(c2cccc(O)c2)[C@@H](C)C1)NC(=O)c1ccc(Oc2cccc(Cl)c2)cc1.Cl.Cl [Compound 19c, Dihydrochloride] 1 (yes)

For this compound, is Kb lower than 1 nM? COc1cc(C(=O)N[C@H](CN2CCN(c3cccc(O)c3)[C@@H](C)C2)C(C)C)ccc1Oc1cccc(C)c1.Cl.Cl [Compound 19h, Dihydrochloride] 1 (yes)

For this compound, is Kb lower than 1 nM? COc1cc(Oc2cccc(C)c2)ccc1C(=O)N[C@H](CN1CCN(c2cccc(O)c2)[C@@H](C)C1)C(C)C.Cl.Cl [Compound 19k, Dihydrochloride] 0 (no)

For this compound, is Kb lower than 1 nM? Cc1cccc(Oc2ccc(C(=O)N[C@H](CN3CCN(c4cccc(O)c4)[C@@H](C)C3)C(C)C)cc2C)c1.Cl.Cl [Compound 19g, Dihydrochloride] 1 (yes)

For this compound, is Kb lower than 1 nM? COc1cc(C(=O)N[C@H](CN2CCN(c3cccc(O)c3)[C@@H](C)C2)C(C)C)ccc1Oc1cc(C)ccc1O.Cl.Cl [Compound 19o, Dihydrochloride] 0 (no)

----------
So I've got a bunch of molecules here, and I need their κ, U69,593 Ke values.
target: cloned human κ-opioid receptor (Homo sapiens, UniProt P41145); construct: expressed in transfected cells; assay: Inhibition of U69,593-stimulated [35S]GTPγS binding; assay type: biochemical; settings: antagonism of U69,593-stimulated [35S]GTPγS binding, cloned human κ receptor
Sequence (P41145 whole entry): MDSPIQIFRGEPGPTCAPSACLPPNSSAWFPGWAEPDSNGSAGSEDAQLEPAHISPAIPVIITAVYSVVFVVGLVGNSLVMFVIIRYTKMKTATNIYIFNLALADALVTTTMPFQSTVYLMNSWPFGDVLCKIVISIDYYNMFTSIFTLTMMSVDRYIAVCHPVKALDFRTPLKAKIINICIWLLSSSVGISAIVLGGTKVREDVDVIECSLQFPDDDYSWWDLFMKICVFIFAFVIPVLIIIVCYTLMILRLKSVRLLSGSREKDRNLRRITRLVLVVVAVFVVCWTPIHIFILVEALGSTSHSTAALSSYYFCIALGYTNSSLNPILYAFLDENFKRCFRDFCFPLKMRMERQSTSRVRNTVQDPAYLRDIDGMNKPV
I only need the number, in nM, no unit after it.

cloned human κ-opioid receptor (Homo sapiens, UniProt P41145) data for "CC(C)[C@@H](CN1CCN(c2cccc(O)c2)[C@@H](C)C1)NC(=O)c1ccc(Oc2ccc(O)cc2)cc1.Cl.Cl" ; its κ, U69,593 Ke: 8.6

cloned human κ-opioid receptor (Homo sapiens, UniProt P41145) data for "Cc1cccc(Oc2ccc(C(=O)N[C@H](CN3CCN(c4cccc(O)c4)[C@@H](C)C3)C(C)C)cc2)c1.Cl.Cl" ; its κ, U69,593 Ke: 0.18

cloned human κ-opioid receptor (Homo sapiens, UniProt P41145) data for "COc1ccc(Oc2ccc(C(=O)N[C@H](CN3CCN(c4cccc(O)c4)[C@@H](C)C3)C(C)C)cc2)cc1.Cl.Cl" ; its κ, U69,593 Ke: 0.60

cloned human κ-opioid receptor (Homo sapiens, UniProt P41145) data for "CC(C)[C@@H](CN1CCN(c2cccc(O)c2)[C@@H](C)C1)NC(=O)c1ccc(Oc2ccccc2O)cc1.Cl.Cl" ; its κ, U69,593 Ke: 1.06

cloned human κ-opioid receptor (Homo sapiens, UniProt P41145) data for "COc1ccccc1Oc1ccc(C(=O)N[C@H](CN2CCN(c3cccc(O)c3)[C@@H](C)C2)C(C)C)cc1.Cl.Cl" ; its κ, U69,593 Ke: 5.60

cloned human κ-opioid receptor (Homo sapiens, UniProt P41145) data for "CC(C)[C@@H](CN1CCN(c2cccc(O)c2)[C@@H](C)C1)NC(=O)c1ccc(Oc2ccccc2)cc1.Cl.Cl" ; its κ, U69,593 Ke: 0.85

cloned human κ-opioid receptor (Homo sapiens, UniProt P41145) data for "Cc1ccc(Oc2ccc(C(=O)N[C@H](CN3CCN(c4cccc(O)c4)[C@@H](C)C3)C(C)C)cc2)cc1.Cl.Cl" ; its κ, U69,593 Ke: 0.69

cloned human κ-opioid receptor (Homo sapiens, UniProt P41145) data for "CC(C)[C@@H](CN1CCN(c2cccc(O)c2)[C@@H](C)C1)NC(=O)c1ccc(Oc2cccc(F)c2)cc1.Cl.Cl" ; its κ, U69,593 Ke: 1.48

----------
biological target: cloned human κ-opioid receptor (Homo sapiens, UniProt P41145); construct: expressed in transfected cells; assay: Inhibition of U69,593-stimulated [35S]GTPγS binding; type: biochemical; settings: ratio of Ke values, selectivity for κ relative to μ
Structures can show the parent of a compound that is named as a salt.
So I've got a bunch of molecules here, and I need their μ/κ values.

The value of μ/κ measured for the molecule Cc1ccc(O)c(Oc2ccc(C(=O)N[C@H](CN3CCN(c4cccc(O)c4)[C@@H](C)C3)C(C)C)cc2Cl)c1.Cl.Cl [Compound 19p] turned out to be 3

The value of μ/κ measured for the molecule CC(C)[C@@H](CN1CCN(c2cccc(O)c2)[C@@H](C)C1)NC(=O)c1ccc(Oc2cccc(Cl)c2)cc1.Cl.Cl [Compound 19c] turned out to be 43

The value of μ/κ measured for the molecule "CC(C)[C@@H](CN1CCN(c2cccc(O)c2)[C@@H](C)C1)NC(=O)c1ccc(Oc2ccccc2)nc1.Cl.Cl.Cl" turned out to be 38

The value of μ/κ measured for the molecule CC(C)[C@@H](CN1CCN(c2cccc(O)c2)[C@@H](C)C1)NC(=O)c1ccc(Oc2ccccc2F)cc1.Cl.Cl [Compound 19a] turned out to be 28

The value of μ/κ measured for the molecule "CC(C)[C@@H](CN1CCN(c2cccc(O)c2)[C@@H](C)C1)NC(=O)c1ccc(Oc2cccc(O)c2)cc1.Cl.Cl" turned out to be 37

The value of μ/κ measured for the molecule Cc1cccc(Oc2ccc(C(=O)N[C@H](CN3CCN(c4cccc(O)c4)[C@@H](C)C3)C(C)C)c(O)c2)c1.Cl.Cl [Compound 19l] turned out to be 81

The value of μ/κ measured for the molecule CC(C)[C@@H](CN1CCN(c2cccc(O)c2)[C@@H](C)C1)NC(=O)c1ccc(Oc2cccc(C(F)(F)F)c2)cc1 [Compound 19b] turned out to be 18

The value of μ/κ measured for the molecule "Cc1ccc(Oc2ccc(C(=O)N[C@H](CN3CCN(c4cccc(O)c4)[C@@H](C)C3)C(C)C)cc2)cc1.Cl.Cl" turned out to be 29

The value of μ/κ measured for the molecule CC(C)[C@@H](CN1CCN(c2cccc(O)c2)[C@@H](C)C1)NC(=O)c1ccc(Oc2ccccc2)cn1 [Compound 7a, Trihydrochloride] turned out to be 36

The value of μ/κ measured for the molecule Cc1cc(C)cc(Oc2ccc(C(=O)N[C@H](CN3CCN(c4cccc(O)c4)[C@@H](C)C3)C(C)C)cc2)c1.Cl.Cl [Compound 19f] turned out to be 26

The value of μ/κ measured for the molecule COc1cc(Oc2cccc(C)c2)ccc1C(=O)N[C@H](CN1CCN(c2cccc(O)c2)[C@@H](C)C1)C(C)C.Cl.Cl [Compound 19k] turned out to be 38

The value of μ/κ measured for the molecule "Cc1cc(C(=O)N[C@H](CN2CCN(c3cccc(O)c3)[C@@H](C)C2)C(C)C)ccc1Oc1ccccc1.Cl.Cl" turned out to be 24

The value of μ/κ measured for the molecule "CC(C)[C@@H](CN1CCN(c2cccc(O)c2)[C@@H](C)C1)NC(=O)c1ccc(Oc2cccc(F)c2)cc1.Cl.Cl" turned out to be 16

----------
target: cloned human κ-opioid receptor (Homo sapiens, UniProt P41145); construct: expressed in transfected cells; assay: Inhibition of U69,593-stimulated [35S]GTPγS binding; type: biochemical; settings: ratio of Ke values, selectivity for κ relative to δ
So I've got a bunch of compounds here, and I need their δ/κ values.
Just the number, please, no unit attached.

cloned human κ-opioid receptor (Homo sapiens, UniProt P41145) data for COc1ccc(Oc2ccc(C(=O)N[C@H](CN3CCN(c4cccc(O)c4)[C@@H](C)C3)C(C)C)cc2)cc1.Cl.Cl [Compound 6j] ; its δ/κ: 2305

cloned human κ-opioid receptor (Homo sapiens, UniProt P41145) data for Cc1cccc(Oc2ccc(C(=O)N[C@H](CN3CCN(c4cccc(O)c4)[C@@H](C)C3)C(C)C)c(O)c2)c1.Cl.Cl [Compound 19l] ; its δ/κ: 129

cloned human κ-opioid receptor (Homo sapiens, UniProt P41145) data for Cc1cc(C(=O)N[C@H](CN2CCN(c3cccc(O)c3)[C@@H](C)C2)C(C)C)ccc1Oc1ccccc1.Cl.Cl [Compound 6k] ; its δ/κ: 691

cloned human κ-opioid receptor (Homo sapiens, UniProt P41145) data for CC(C)[C@@H](CN1CCN(c2cccc(O)c2)[C@@H](C)C1)NC(=O)c1ccc(Oc2cccc(C(F)(F)F)c2)cc1 [Compound 19b] ; its δ/κ: 45

cloned human κ-opioid receptor (Homo sapiens, UniProt P41145) data for Cc1ccc(O)c(Oc2ccc(C(=O)N[C@H](CN3CCN(c4cccc(O)c4)[C@@H](C)C3)C(C)C)cc2Cl)c1.Cl.Cl [Compound 19p] ; its δ/κ: 5

cloned human κ-opioid receptor (Homo sapiens, UniProt P41145) data for Cc1cccc(Oc2ccc(C(=O)N[C@H](CN3CCN(c4cccc(O)c4)[C@@H](C)C3)C(C)C)c(C)c2)c1.Cl.Cl [Compound 19j] ; its δ/κ: 28

Source of measurements: patent US9512105B2
